These entries and their values trace back to paper doi:10.1101/2022.03.02.482667.

EXPERIMENTAL SYSTEM: His-tagged G3BP1 NTF2 (human, UniProt Q13283 1-139)
Sequence (Q13283 1-139): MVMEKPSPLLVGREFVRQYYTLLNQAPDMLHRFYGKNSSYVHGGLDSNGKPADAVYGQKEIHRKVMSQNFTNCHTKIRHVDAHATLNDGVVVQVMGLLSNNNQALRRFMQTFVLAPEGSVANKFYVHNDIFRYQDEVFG
PROTOCOL: peptide or protein array
VALUE KIND: binding result

Some solved entries appear below for comparison.
QGPYWFIQDSMLDFENQTLD [Caprin1 array peptide N371W] | binds
QGPYNFLQDSMLDFENQTLD [Caprin1 array peptide I373L] | binds
QGPYVFIQDSMLDFENQTLD [Caprin1 array peptide N371V] | binds
QGPFNFIQDSMLDFENQTLD [Caprin1 array peptide Y370F] | binds
QGPYCFIQDSMLDFENQTLD [Caprin1 array peptide N371C] | binds
QGPYMFIQDSMLDFENQTLD [Caprin1 array peptide N371M] | binds

Request: Which binding result value is on record for QGPYNFIQDCMLDFENQTLD [Caprin1 array peptide S376C] ?
Result: binds

Request: Try the binder QGPYNFIQDSMLDFENQTLD [native Caprin1 array peptide QGPYNFIQDSMLDFENQTLD]
Result: binds

Request: What do you have for QGPYIFIQDSMLDFENQTLD [Caprin1 array peptide N371I] ?
Result: binds

Request: Next record, please: QGPYNFIQDSYLDFENQTLD [Caprin1 array peptide M377Y]
Result: binds

Request: Proceed to QGPYKFIQDSMLDFENQTLD [Caprin1 array peptide N371K]
Result: binds

Request: Now consider QGPYNFIQESMLDFENQTLD [Caprin1 array peptide D375E] and answer again.
Result: binds

Request: Also need QGPYTFIQDSMLDFENQTLD [Caprin1 array peptide N371T] , thanks.
Result: binds

Request: Record: QGPYDFIQDSMLDFENQTLD [Caprin1 array peptide N371D]
Result: binds

Request: Also check QGPYQFIQDSMLDFENQTLD [Caprin1 array peptide N371Q]
Result: binds

Request: Also need QGPYRFIQDSMLDFENQTLD [Caprin1 array peptide N371R] , thanks.
Result: binds

Request: Repeat with QGPYNFIQDSFLDFENQTLD [Caprin1 array peptide M377F]
Result: binds

Request: What do we get for QGPYLFIQDSMLDFENQTLD [Caprin1 array peptide N371L] ?
Result: binds

Request: Now this one: QGPYSFIQDSMLDFENQTLD [Caprin1 array peptide N371S]
Result: binds

Request: And QGPYHFIQDSMLDFENQTLD [Caprin1 array peptide N371H] ?
Result: binds

Request: Input QGPYEFIQDSMLDFENQTLD [Caprin1 array peptide N371E]
Result: binds
